Values from PubChem BioAssay AID651597

biological target: Luciferin 4-monooxygenase (Photinus pyralis) (UniProt P08659); assay: qHTS of Nrf2 Activators: Hit Validation in Secondary FLuc Assay; settings: firefly luciferase inhibition counter-screen, luminescence; series mostly up to 57.5 µM; further: nearly all actives have a fitted effect of over 65% in size
In all, about 1,100 compounds went through this assay and about 390 (35%) were called active. Another 30% or so got no clear call; they are omitted. The call rests on the fitted dose curve; in most records, active means well fitted inhibition curve with a large enough effect; inconclusive means small, poorly fitted or top-dose-only effect; inactive means flat fitted curve, though single readings scatter. The list shows a part of the results.
Labels: active, inactive

1. Cc1ccc(N=C/C(C(=O)C(F)(F)F)=C(\O)c2ccco2)cc1Cl
active
2. Cc1cc(C)c(C#N)c(OCC(=O)c2ccccc2)n1
inactive
3. O=c1cc(-c2ccccc2Cl)oc2c(Br)ccc(O)c12
active
4. COc1ccc(Cl)cc1NC(=O)c1ccco1
inactive
5. O=C(NCc1ccco1)c1cccnc1-c1nc2ccccc2s1
active
6. CC1(O)c2ccccc2C(=O)N1CCc1ccccc1F (configuration not stated)
active
7. O=C(Nc1cc(-c2nc3cc(Cl)ccc3o2)ccc1Cl)c1ccco1
active
8. O=C(/C=C/c1ccco1)Nc1cccc2cccnc12
active
9. COc1cc2c(cc1OC)/C(=C/c1ccc(Cl)cc1)C(=O)OC2
inactive
10. CC(C)(C)OC(=O)NCCC(=O)N/N=C/c1cccc2cccnc12
inactive
11. COc1c(Cl)cc(C(=O)NCc2ccco2)cc1Cl
inactive
12. O=C(O)c1ccc(/C=C2\COc3ccccc3C2=O)cc1
active
13. C/C(=N\NC(=O)c1cccc(S(=O)(=O)N2CCCC2)c1)c1ccco1
inactive
14. CCNc1nc(NCC)nc(N(C)/N=C/c2ccco2)n1
inactive
15. Clc1ccc(Br)cc1-c1nc(-c2ccncc2)no1
active
16. O=c1oc2ccccc2cc1-c1csc(Nc2ccc(O)cc2)n1
active
17. CCN(C(=O)Cn1nnc2sc(-c3ccccc3)cc2c1=O)c1cccc(C)c1
active
18. O=c1oc2ccc(Br)cc2cc1-c1nc2ccccc2o1
inactive
19. COc1ccc(OC)c(/C=C(\C#N)c2nc(-c3ccc(F)cc3)cs2)c1
inactive
20. CCN(CC)c1ccc2c(c1)oc(=O)c1c(Cl)cc(=O)oc12
active
21. O=C(NCCc1c[nH]c2ccccc12)c1ccc([N+](=O)[O-])o1
inactive
22. CC(=NNC(=O)CSc1nc2ccccc2o1)c1ccco1
inactive
23. O=c1oc(CCO)cc2ccc(C#Cc3ccsc3)cc12
active
24. COC(=O)C1=C(C)N(c2ccc(Br)cc2)C(=O)/C1=C\c1ccco1
inactive
25. Cc1nn(-c2cccc(C(F)(F)F)c2)c(=O)c2ccccc12
inactive
26. c1ccc(N2CC3COc4ccccc4C3=N2)cc1 (configuration not stated)
active
27. O=C(/C=C/c1ccco1)Nc1cccnc1Cl
active
28. O=c1cc(-c2cccc(Br)c2)oc2cccc(O)c12
inactive
29. CS(=O)(=O)N1CCN(c2ccccc2NC(=O)c2ccc([N+](=O)[O-])o2)CC1
inactive
30. CCOc1c(Br)cc(C(N)=O)cc1OCc1ccccc1
inactive
31. Cc1cc(C)c(C#N)c(SCC(=O)c2cccs2)n1
active
32. Cc1ccc(/C=C/C(=O)OCC(=O)Nc2cccnc2Cl)o1
inactive
33. N#CC1=C(N)Oc2c(ccc3ccccc23)C1c1ccsc1 (configuration not stated)
active
34. Cc1sc2ncnc(Sc3nnnn3-c3ccccc3)c2c1C
inactive
35. NC(=O)c1ccsc1NC(=O)COC(=O)[C@@H]1CCCN1C(=O)c1cccs1
inactive
36. O=C(Nc1ccc(F)cc1)c1nsc(Cl)c1Cl
active
37. Cc1ccc(NC(=O)CC2S/C(=N/N=C/c3ccco3)NC2=O)cc1Cl (configuration not stated)
inactive
38. COc1ccc(N2CCCC2)c(NC(=O)c2ccc([N+](=O)[O-])o2)c1
inactive
39. CC1(C)CC[C@]2(C(=O)n3ccnc3)CC[C@]3(C)[C@H](C(=O)C=C4[C@@]5(C)C=C(C#N)C(=O)C(C)(C)[C@@H]5CC[C@]43C)[C@@H]2C1
active
40. C/C(=N\NC(=O)c1cccc(Br)c1)c1ccccn1
active
41. O=C1/C(=C\c2ccco2)NC(=S)N1c1ccccc1
active
42. CN1CCCC1CCNc1ccc2c(=O)c3ccccc3oc2c1 (configuration not stated)
active
43. CN1CCN(S(=O)(=O)c2ccc(Sc3nnnn3-c3ccccc3)c([N+](=O)[O-])c2)CC1
inactive
44. [O-][n+]1onc2c3cc(-c4ccccc4)nnc3ccc21
inactive
45. CSc1nsc(SC)c1C(=O)Nc1ccc(Cl)cc1
inactive
46. COc1ccc(O)c(-c2cc(-c3ccc(F)cc3)n[nH]2)c1
active
47. Cc1cc(N2CCOCC2)n2nc(-c3cccc(F)c3)cc2n1
inactive
